Hi there, I'd appreciate the recorded concentration at 4 h for every entry that follows.
# test.details: Drug level in Sprague-Dawley rat liver at 5 mg/kg, po after 4 hrs
# Type: ADME, organism-based
# Set-up: dose 5 mg/kg, route oral
# measurement.context: read-out: Drug uptake
The response must be a number in µM with no trailing unit.

Tell me measured concentration at 4 h for C=C[C@@H]1C[C@]1(NC(=O)[C@@H]1C[C@@H]2CN1C(=O)[C@H](C1CCCC1)NC(=O)OCC(C)(C)C/C=C/c1cc3c(cc(-c4ccccc4)nc3cc1OC)O2)C(=O)NS(=O)(=O)C1CC1 please.
41

Tell me measured concentration at 4 h for C=C[C@@H]1C[C@]1(NC(=O)[C@@H]1C[C@@H]2CN1C(=O)[C@H](C1CCCCC1)NC(=O)OCC(C)(C)CCCc1cc3c(cc(-c4ccccc4OC)nc3cc1OC)O2)C(=O)NS(=O)(=O)C1CC1 please.
6.3

Tell me measured concentration at 4 h for C=C[C@@H]1C[C@]1(NC(=O)[C@@H]1C[C@@H]2CN1C(=O)[C@H](C1CCCC1)NC(=O)OCC(C)(C)CCCc1cc3c(cc(OCc4csc(C(C)C)n4)nc3cc1OC)O2)C(=O)NS(=O)(=O)C1CC1 please.
2.7

Tell me measured concentration at 4 h for C=C[C@@H]1C[C@]1(NC(=O)[C@@H]1C[C@@H]2CN1C(=O)[C@H](C(C)C)NC(=O)N(C)CCCCCc1cc3c(cc(-c4ccccc4)nc3cc1OC)O2)C(=O)NS(=O)(=O)C1CC1 please.
0.304

Tell me measured concentration at 4 h for C=C[C@@H]1C[C@]1(NC(=O)[C@@H]1C[C@@H]2CN1C(=O)[C@H](C1CCCCC1)NC(=O)OCC(C)(C)CCCc1cc3c(cc(-c4cccc(OC)c4)nc3cc1OC)O2)C(=O)NS(=O)(=O)C1CC1 please.
6.7

Tell me measured concentration at 4 h for C=C[C@@H]1C[C@]1(NC(=O)[C@@H]1C[C@@H]2CN1C(=O)[C@H](C1CCCCC1)NC(=O)OCC(C)(C)CCCc1cc3c(cc(N(C)C(=O)OCC)nc3cc1OC)O2)C(=O)NS(=O)(=O)C1CC1 please.
42

Tell me measured concentration at 4 h for C=C[C@@H]1C[C@]1(NC(=O)[C@@H]1C[C@@H]2CN1C(=O)[C@H](C1CCCC1)NC(=O)OCC(C)(C)CCCc1cc3c(nc4ccccc4c3cc1OC)O2)C(=O)NS(=O)(=O)C1CC1 please.
27

Tell me measured concentration at 4 h for C=C[C@@H]1C[C@]1(NC(=O)[C@@H]1C[C@@H]2CN1C(=O)[C@H](C1CCCC1)NC(=O)OCC(C)(C)CCCc1cc3c(nc4cc(F)ccc4c3cc1OC)O2)C(=O)NS(=O)(=O)C1CC1 please.
22

Tell me measured concentration at 4 h for C=C[C@@H]1C[C@]1(NC(=O)[C@@H]1C[C@@H]2CN1C(=O)[C@H](C1CCCC1)NC(=O)OCC(C)(C)CCCc1cc3c(cc(OCc4ncn(C)n4)nc3cc1OC)O2)C(=O)NS(=O)(=O)C1CC1 please.
0.03

----------
Hi there, I'd appreciate the recorded Ki for every entry that follows.
# test.details: Inhibition of HCV1b BK NS3/4A protease expressed in Escherichia coli after 1 hr by time-resolved fluorescence assay
# Parameters: species or system Hepatitis C virus (isolate BK)

Tell me measured Ki for C=C[C@@H]1C[C@]1(NC(=O)[C@@H]1C[C@@H]2CN1C(=O)[C@H](C1CCCCC1)NC(=O)OCC(C)(C)CCCc1cc3c(cc(-c4cccc(OC)c4)nc3cc1OC)O2)C(=O)NS(=O)(=O)C1CC1 please.
0.07 nM

Tell me measured Ki for C=C[C@@H]1C[C@]1(NC(=O)[C@@H]1C[C@@H]2CN1C(=O)[C@H](C1CCCCC1)NC(=O)OCC(C)(C)CCCc1cc3c(cc(OC4CCCC4)nc3cc1OC)O2)C(=O)NS(=O)(=O)C1CC1 please.
0.05 nM

Tell me measured Ki for C=C[C@@H]1C[C@]1(NC(=O)[C@@H]1C[C@@H]2CN1C(=O)[C@H](C1CCCCC1)NC(=O)OCC(C)(C)CCCc1cc3c(cc(NC)nc3cc1OC)O2)C(=O)NS(=O)(=O)C1CC1 please.
0.09 nM

Tell me measured Ki for C=C[C@@H]1C[C@]1(NC(=O)[C@@H]1C[C@@H]2CN1C(=O)[C@H](C1CCCC1)NC(=O)OCC(C)(C)CCCc1cc3c(nc4cc(F)ccc4c3cc1OC)O2)C(=O)NS(=O)(=O)C1CC1 please.
< 0.02 nM

Tell me measured Ki for C=C[C@@H]1C[C@]1(NC(=O)[C@@H]1C[C@@H]2CN1C(=O)[C@H](C1CCCC1)NC(=O)OCC(C)(C)CCCc1cc3c(nc4cc(OC)ccc4c3cc1OC)O2)C(=O)NS(=O)(=O)C1CC1 please.
< 0.02 nM

Tell me measured Ki for C=C[C@@H]1C[C@]1(NC(=O)[C@@H]1C[C@@H]2CN1C(=O)[C@H](C1CCCC1)NC(=O)OCC(C)(C)CCCc1cc3c(cc(OCc4csc(C(C)C)n4)nc3cc1OC)O2)C(=O)NS(=O)(=O)C1CC1 please.
< 0.02 nM

Tell me measured Ki for C=C[C@@H]1C[C@]1(NC(=O)[C@@H]1C[C@@H]2CN1C(=O)[C@H](C1CCCCC1)NC(=O)OCC(C)(C)CCCc1cc3c(cc(-c4ccccc4OC)nc3cc1OC)O2)C(=O)NS(=O)(=O)C1CC1 please.
0.09 nM

Tell me measured Ki for C=C[C@@H]1C[C@]1(NC(=O)[C@@H]1C[C@@H]2CN1C(=O)[C@H](C1CCCC1)NC(=O)OCC(C)(C)CCCc1cc3c(nc4ccccc4c3cc1OC)O2)C(=O)NS(=O)(=O)C1CC1 please.
< 0.02 nM

Tell me measured Ki for C=C[C@@H]1C[C@]1(NC(=O)[C@@H]1C[C@@H]2CN1C(=O)[C@H](C1CCCCC1)NC(=O)OCC(C)(C)CCCc1cc3c(cc(OCc4csc(C)n4)nc3cc1OC)O2)C(=O)NS(=O)(=O)C1CC1 please.
0.1 nM

Tell me measured Ki for C=C[C@@H]1C[C@]1(NC(=O)[C@@H]1C[C@@H]2CN1C(=O)[C@H](C1CCCC1)NC(=O)OCC(C)(C)CCCc1cc3c(nc4cc(C)ccc4c3cc1OC)O2)C(=O)NS(=O)(=O)C1CC1 please.
< 0.02 nM
